Endpoint: pIC50. System: Glucocorticoid receptor (Homo sapiens). Items follow.
Remember the convention: pIC50 equals -log10 of concentration in molar.

Value lookup for pIC50; key = `Cc1cc(C)c(S(=O)(=O)N[C@@H](C)CNc2cccc3c2cnn3-c2ccc(F)nc2)c(C)c1`
7.64

Next: `Cc1cccc(-n2ncc3c(NC[C@H](C)NS(=O)(=O)c4c(C)cc(C)cc4C)cccc32)c1`
8.06

Next: `Cc1cc(C)c(S(=O)(=O)N[C@@H](C)CNc2cccc3c2cnn3-c2cccc(F)c2)c(C)c1`
7.55

Next: `Cc1nn(C2CCCC2)c(C)c1S(=O)(=O)N[C@@H](C)CNc1cccc2c1cnn2-c1ccc(F)nc1`
7.85

Next: `Cc1cc(C)c(S(=O)(=O)N[C@@H](C)CNc2cccc3c2cnn3-c2ccc(Cl)cc2)c(C)c1`
7.89

Next: `Cc1cc(C)c(S(=O)(=O)N[C@@H](C)CNc2cccc3c2cnn3-c2cncnc2)c(C)c1`
8.09

Next: `Cc1cc(C)c(S(=O)(=O)N[C@@H](C)CNc2cccc3c2cnn3-c2ccccc2)c(C)c1`
8.80

Next: `Cc1cc(C)c(S(=O)(=O)N[C@@H](C)CCc2cccc3c2cnn3-c2ccc(F)cc2)c(C)c1`
7.92

* * *

Endpoint: IC50. System: Glucocorticoid receptor (Homo sapiens). Items follow.
Value expressed in nM; do not type the unit.

Query IC50 on Glucocorticoid receptor (Homo sapiens) for `Cc1cc(C)c(S(=O)(=O)N[C@@H](C)CNc2cccc3c2cnn3-c2cccnc2)c(C)c1`
2.6

Next: `Cc1cc(C)c(S(=O)(=O)N[C@@H](C)CCc2cccc3c2cnn3-c2ccc(F)cc2)c(C)c1`
23

Next: Cc1cc(C)c(S(=O)(=O)NC(COc2cccc3c2cnn3-c2ccc(F)cc2)C(F)(F)F)c(C)c1 (racemic)
14

Next: `C[C@@H](COc1cccc2ncccc12)NS(=O)(=O)c1c(Cl)cc(Cl)cc1Cl`
2400

Next: `Cc1cc(C)c(S(=O)(=O)N[C@@H](C)CNc2ccc(C)c3ncccc23)c(C)c1`
1100

Next: `Cc1cc(C)c(S(=O)(=O)N[C@@H](C)COc2cccc3ncccc23)c(C)c1`
960

Next: `COc1cccc(-n2ncc3c(NC[C@H](C)NS(=O)(=O)c4c(C)cc(C)cc4C)cccc32)c1`
41

Next: `Cc1cc(C)c(S(=O)(=O)N[C@H](CNc2cccc3c2cnn3-c2ccc(F)cc2)C(C)C)c(C)c1`
12

Next: `Cc1cc(C)c(S(=O)(=O)N[C@@H](C)CNc2cccc3ncccc23)c(C)c1`
1800

Next: `Cc1cc(C)c(S(=O)(=O)N[C@@H](C)CNc2cccc3[nH]ncc23)c(C)c1`
760

Next: `Cc1cc(C)c(S(=O)(=O)N[C@@H](C)CNc2cccc3c2cnn3-c2ccccc2)c(C)c1`
1.5

Next: `Cc1nn(C2CCCC2)c(C)c1S(=O)(=O)N[C@@H](C)CNc1cccc2c1cnn2-c1ccc(C#N)cc1`
16

Next: `Cc1cc(C)c(S(=O)(=O)N[C@@H](C)CNc2cccc3c2cnn3-c2ccc(F)c(C)c2)c(C)c1`
14

* * *

Endpoint: pIC50. System: Glucocorticoid receptor (Homo sapiens). Items follow.
Remember the convention: pIC50 equals -log10 of concentration in molar.

Value lookup for pIC50; key = `Cc1ccc(S(=O)(=O)N[C@@H](C)COc2cccc3cnccc23)c(C)c1`
6.39

Next: `Cc1cc(C)c(S(=O)(=O)N[C@@H](C)CNc2ccc3ncccc3c2)c(C)c1`
5.00

Next: `Cc1cc(C)c(S(=O)(=O)N[C@@H](C)CNc2ccc3cnccc3c2)c(C)c1`
5.00

Next: `Cc1nn(C2CCCC2)c(C)c1S(=O)(=O)N[C@@H](C)COc1cccc2cnccc12`
7.49

Next: `Cc1cc(C)c(S(=O)(=O)N[C@H](CNc2cccc3c2cnn3-c2ccc(F)cc2)C(C)C)c(C)c1`
7.46

Next: `Cc1ccc(S(=O)(=O)N[C@@H](C)COc2cccc3ncccc23)c(C)c1`
5.80

Next: `Cc1cc(C)c(S(=O)(=O)N[C@@H](C)COc2c(C)cccc2C)c(C)c1`
7.07

Next: `Cc1cc(C)c(S(=O)(=O)N[C@@H](C)CNc2cccc3c2cnn3-c2cncnc2)c(C)c1`
8.28

Next: `Cc1cc(Cl)cc(Cl)c1S(=O)(=O)N[C@@H](C)COc1cccc2ncccc12`
6.66

Next: Cc1cc(C)c(S(=O)(=O)NC(C)CSc2cccc3c2cnn3-c2ccc(F)cc2)c(C)c1 (racemic)
8.11

Next: `Cc1cc(C)c(S(=O)(=O)N[C@@H](C)CNc2cccc3c2cnn3-c2ccc(F)c(C)c2)c(C)c1`
8.39

Next: `Cc1cc(C)c(S(=O)(=O)N[C@@H](C)COc2cccc3cnccc23)c(C)c1`
7.74

Next: `Cc1cc(C)c(S(=O)(=O)N[C@@H](C)COc2cccc3ncccc23)c(C)c1`
6.62

* * *

Endpoint: IC50. System: Glucocorticoid receptor (Homo sapiens, UniProt P04150). Items follow.
Sequence (P04150 whole entry): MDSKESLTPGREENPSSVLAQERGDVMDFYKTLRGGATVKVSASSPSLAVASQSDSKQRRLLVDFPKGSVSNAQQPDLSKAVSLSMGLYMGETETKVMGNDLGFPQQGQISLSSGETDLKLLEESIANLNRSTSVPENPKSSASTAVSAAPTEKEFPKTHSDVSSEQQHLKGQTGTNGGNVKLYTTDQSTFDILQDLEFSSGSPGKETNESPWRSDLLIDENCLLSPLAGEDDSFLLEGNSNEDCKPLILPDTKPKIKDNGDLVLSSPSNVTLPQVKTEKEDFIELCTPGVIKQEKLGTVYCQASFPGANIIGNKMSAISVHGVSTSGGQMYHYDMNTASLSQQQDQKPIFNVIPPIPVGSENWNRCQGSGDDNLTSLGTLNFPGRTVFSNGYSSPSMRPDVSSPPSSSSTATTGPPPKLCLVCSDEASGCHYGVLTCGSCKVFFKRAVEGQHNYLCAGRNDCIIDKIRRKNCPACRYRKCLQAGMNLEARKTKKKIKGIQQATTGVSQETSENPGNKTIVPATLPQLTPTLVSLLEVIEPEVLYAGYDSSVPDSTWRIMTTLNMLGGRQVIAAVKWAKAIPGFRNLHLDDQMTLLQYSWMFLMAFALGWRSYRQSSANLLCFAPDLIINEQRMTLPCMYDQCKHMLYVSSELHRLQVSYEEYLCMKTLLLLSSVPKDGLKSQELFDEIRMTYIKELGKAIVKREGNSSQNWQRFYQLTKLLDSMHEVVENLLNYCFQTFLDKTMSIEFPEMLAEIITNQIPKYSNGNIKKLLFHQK

Query IC50 on Glucocorticoid receptor (Homo sapiens, UniProt P04150) for `C[C@@H](COc1cccc2ncccc12)NS(=O)(=O)c1ccccc1C#N`
> 10 µM

Next: `C[C@@H](COc1cccc2ncccc12)NS(=O)(=O)c1ccccc1`
> 10 µM

Next: `COc1ccccc1S(=O)(=O)N[C@@H](C)COc1cccc2ncccc12`
> 10 µM
